System: hippocampal mixed neuronal culture
Experiment: Oxygen glucose deprivation (OGD) in hippocampal mixed neuronal culture
Assay type: cell-based, rat
Settings: 500 nM, DIV 12, 90 min OGD (FIG. 18G)
value-type: neuroprotection after OGD (Hoechst positive nuclei counting)

* CC/C=C\C/C=C\C/C=C\C/C=C\C/C=C\C/C=C\CCCCCCCCCCCCC(=O)O | showed neuroprotection
* CC/C=C\C/C=C\C/C=C\C/C=C\C/C=C\C/C=C\CCCCCCCCCCCCCCC(=O)O | showed neuroprotection
* CC/C=C\C[C@H](O)\C=C/C=C/C=C/[C@H](O)C/C=C\C/C=C\CCCCCCCCCCCCCCC(=O)[O-].[Na+] | neuroprotection elicited
* CC/C=C\C[C@H](O)\C=C/C=C/C=C/[C@H](O)C/C=C\C/C=C\CCCCCCCCCCCCC(=O)[O-].[Na+] | neuroprotection elicited
